Molecular target: LXRβ (Homo sapiens)
Construct: Co-transfection expression plasmids, comprising full-length LXRα (pCMX-h LXRα[…] or LXRβ (pCMX-hLXRβ))
Sequence (P55055 whole entry): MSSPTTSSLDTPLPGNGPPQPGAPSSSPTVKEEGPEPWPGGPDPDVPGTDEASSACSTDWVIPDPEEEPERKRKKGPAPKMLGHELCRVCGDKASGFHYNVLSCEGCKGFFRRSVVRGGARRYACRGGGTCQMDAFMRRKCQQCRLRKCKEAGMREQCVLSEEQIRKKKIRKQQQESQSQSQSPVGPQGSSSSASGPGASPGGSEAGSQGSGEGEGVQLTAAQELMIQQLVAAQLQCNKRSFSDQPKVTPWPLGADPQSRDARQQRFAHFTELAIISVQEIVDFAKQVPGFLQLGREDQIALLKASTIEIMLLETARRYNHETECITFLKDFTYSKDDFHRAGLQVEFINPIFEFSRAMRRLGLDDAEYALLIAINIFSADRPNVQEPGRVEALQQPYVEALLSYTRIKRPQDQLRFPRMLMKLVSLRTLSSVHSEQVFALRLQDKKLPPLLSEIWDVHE
Sequence (P19793 whole entry partner): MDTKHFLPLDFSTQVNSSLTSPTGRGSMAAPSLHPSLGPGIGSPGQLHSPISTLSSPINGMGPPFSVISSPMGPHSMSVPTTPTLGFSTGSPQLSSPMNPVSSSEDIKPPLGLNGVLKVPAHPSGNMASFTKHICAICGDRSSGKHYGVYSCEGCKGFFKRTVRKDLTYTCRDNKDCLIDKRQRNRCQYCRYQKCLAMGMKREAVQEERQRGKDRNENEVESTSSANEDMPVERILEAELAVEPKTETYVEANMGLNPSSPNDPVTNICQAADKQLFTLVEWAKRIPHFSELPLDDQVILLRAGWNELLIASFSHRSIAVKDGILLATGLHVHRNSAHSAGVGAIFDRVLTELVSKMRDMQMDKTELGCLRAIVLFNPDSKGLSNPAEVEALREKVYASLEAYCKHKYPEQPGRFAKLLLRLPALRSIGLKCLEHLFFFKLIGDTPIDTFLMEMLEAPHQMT
Test: Co-transfection assay (LXRE luciferase reporter), LXRβ
Conditions: CV-1 cells transfected with pCMX-hLXRβ and LXREx1-Tk-Luciferase; 20 hours incubation
readout: log10 EC50 (log10 of the value in nM)
// do not treat as linear: log10 of EC50, unit nM

Consider the following illustrative entries.
[[record]]
molecular_string = "Cc1nc(C(F)(F)F)cn1-c1ccc(-c2cc(F)cc(S(C)(=O)=O)c2)cc1-c1nc(C(F)(F)F)cn1-c1ccc2c(c1)OC(F)(F)O2"
value_reported = 2.86

[[record]]
molecular_string = "Cc1nc(-c2cc(-c3cc(F)c(CO)c(S(C)(=O)=O)c3)ccc2-n2cc(C(F)(F)F)nc2C)c(-c2ccc(N3CCCC3=O)cc2)o1"
value_reported = 3.21

[[record]]
molecular_string = "Cc1nc(-c2cc(-c3cc(F)c(CO)c(S(C)(=O)=O)c3)ccc2-n2cc(C(F)(F)F)nc2C)c(-c2ccc(OCC3CC3)c(F)c2)o1"
value_reported = 1.83

[[record]]
molecular_string = "Cc1nc(C(F)(F)F)cn1-c1ccc(-c2cccc(S(C)(=O)=O)c2)cc1-c1ccnn1-c1ccc(Cl)cc1"
value_reported = 2.18

[[record]]
molecular_string = "Cc1nc(C(F)F)c(Cl)n1-c1ccc(-c2cc(F)c(CO)c(S(C)(=O)=O)c2)cc1-n1nncc1-c1ccc(OC(F)(F)F)cc1"
value_reported = 2.42


Turning to the following molecule.
Which measured log10 EC50 value corresponds to `CS(=O)(=O)c1cccc(-c2ccc(-n3cc(C(F)(F)F)nc3C(F)F)c(-n3nncc3-c3ccc(Cl)cc3)c2)c1` ?
3.04
